# Tested on: PC-3 prostate
# PROCEDURE_SUMMARY: NCI-60 one-dose screen, 48 h
# CONDITION: 10 µM unless noted
Compounds without any hit were thinned out: in the full panel of roughly 83,000, 20% have a hit. The source made the active and inactive calls. How the source made its calls: active means growth percent below 10; inactive means the rest.
Response enum: active, inactive

Solved entries (count: 8):
- MOLECULE: "COc1ccc2c(c1)c(-c1nc(-c3c[nH]c4ncccc34)cs1)cn2CCO"
  TARGET_ENTITY: "PC-3 prostate"
  DISCRETE_LABEL: "inactive"
- MOLECULE: "O=C(Nc1ccccc1N1CCCC1=O)c1oc2ccc(F)cc2c1-c1cnn(-c2ccccc2)c1"
  TARGET_ENTITY: "PC-3 prostate"
  DISCRETE_LABEL: "inactive"
- MOLECULE: "CCOC(=O)CC1CSC(Nc2ccccc2)=N1 (stereo not given)"
  TARGET_ENTITY: "PC-3 prostate"
  DISCRETE_LABEL: "inactive"
- MOLECULE: "Cc1cccc(Oc2ccc(Nc3ncnc4ccc(NC(=O)CN5CCN(C)CC5)cc34)cc2Cl)c1"
  TARGET_ENTITY: "PC-3 prostate"
  DISCRETE_LABEL: "inactive"
- MOLECULE: "CC(C)CCN(CCC(C)C)CC(O)c1cc2c(c3ccccc13)CCCC2 (stereo not given)"
  TARGET_ENTITY: "PC-3 prostate"
  DISCRETE_LABEL: "inactive"
- MOLECULE: "COc1ccc(C(=O)/C=C/c2ccc(N3CCCCC3)cc2)cc1OC"
  TARGET_ENTITY: "PC-3 prostate"
  DISCRETE_LABEL: "inactive"
- MOLECULE: "CS(=O)(=O)c1nnc(-c2ccccc2)s1"
  TARGET_ENTITY: "PC-3 prostate"
  DISCRETE_LABEL: "inactive"
- MOLECULE: "CCOC(=O)c1ccccc1-c1c2ccc(=[N+](C)C)cc-2oc2cc(N(C)C)ccc12"
  TARGET_ENTITY: "PC-3 prostate"
  DISCRETE_LABEL: "active"

Task item: // return assay outcome for c1ccc(CCNc2c3ccccc3nc3ccccc23)cc1
Reply: inactive

Task item: Field: outcome | Entry: S=c1nc2oc(-c3ccccc3)c(-c3ccccc3)c2c(/N=C\c2ccco2)[nH]1
Reply: inactive
